The reported numbers originate from ChEMBL document CHEMBL3045134.

Here the recorded Activity is given for each entry.
# System: Rattus norvegicus
# experiment: Anti-inflammatory activity carrageenan-induced paw edema in Rattus norvegicus albino (rat) assessed as paw thickness at 9 mg/kg, ip administered 1 hr prior to carrageenan-induced measured 4 hr post challenge
# Format: functional
# assay_context: route intraperitoneal

Recorded results for 4 molecules are shown here.
chem_smiles	target_entity	Activity
O=C(Cn1nnc2ccccc2c1=O)N/N=c1/scc(-c2ccccc2)n1-c1ccccc1	Rattus norvegicus	5.12 mm
CC(=O)c1ccc(NC(=O)Cn2nnc3ccccc3c2=O)cc1	Rattus norvegicus	4.37 mm
COc1ccccc1NC(=O)Cn1nnc2ccccc2c1=O	Rattus norvegicus	4.25 mm
Cc1cc(C)n(C(=O)Cn2nnc3ccccc3c2=O)n1	Rattus norvegicus	3.75 mm

Query: What value of Activity has been recorded for this entry: `Cc1ccc(C)n1NC(=O)Cn1nnc2ccccc2c1=O`
Reply: 4.25 mm

###

# Tested on: Rattus norvegicus
# experiment: Anti-inflammatory activity carrageenan-induced paw edema in Rattus norvegicus albino (rat) assessed as paw thickness at 9 mg/kg, ip administered 1 hr prior to carrageenan-induced measured 4 hr post challenge
# Type: functional
# assay_context: route intraperitoneal
reported_metric: Activity (mm)
Give your result in mm as a bare value.

Reference set, count: 4
chem_smiles	value_units	Activity
Cc1ccc(NC(=O)Cn2nnc3ccccc3c2=O)cc1	mm	4.12
Cc1ccccc1NC(=O)Cn1nnc2ccccc2c1=O	mm	4.25
O=C(Cn1nnc2ccccc2c1=O)Nc1ccccc1	mm	3.8
O=c1c2ccccc2nnn1Cc1nnc(Nc2ccccc2)o1	mm	5.25

Query: Look up Activity: `O=c1c2ccccc2nnn1Cc1nnc(Nc2ccccc2)s1`
Reply: 5.25

Query: Look at this compound and give its reported Activity. `Cc1cc(-c2ccccc2)n(C(=O)Cn2nnc3ccccc3c2=O)n1`
Reply: 3.75

Query: # get_value(readout='Activity', item= `COc1cccc(NC(=O)Cn2nnc3ccccc3c2=O)c1` )
Reply: 3.25

Query: Item `Cc1ccc(-c2cc(C(F)(F)F)nn2-c2ccc(S(N)(=O)=O)cc2)cc1` has what recorded Activity?
Reply: 3.87
